test_protocol: Snapshot in vivo PK study, plasma and brain levels after IP administration
condition_context: plasma, 10 mg/kg
value_type: concentration at 1 h
Remember to quote the unit after the number.

Req: Please give the measured concentration at 1 h for this molecule: Cc1cc(C)c(NC(=O)C2CC3CCC2C3)c(C)c1 (stereo not shown)
Resp: 1260 nM

====

tgt: KCNQ2 channels (Homo sapiens, UniProt O43526)
test_protocol: IonWorks automated electrophysiology
Type: cell-based
condition_context: IW EC50, KCNQ2 (enhancement of KCNQ2 currents), -10 mV step potential
value_type: EC50 (nM)
# value in nM; strip the unit string

Req: Please give the measured EC50 for this compound: Cc1cc(C)c(NC(=O)C2CC3CCC2C3)c(C)c1 (stereo not shown) [compound 1]
Resp: 230

====

tgt: UniProt:P11712
Sequence (P11712 whole entry): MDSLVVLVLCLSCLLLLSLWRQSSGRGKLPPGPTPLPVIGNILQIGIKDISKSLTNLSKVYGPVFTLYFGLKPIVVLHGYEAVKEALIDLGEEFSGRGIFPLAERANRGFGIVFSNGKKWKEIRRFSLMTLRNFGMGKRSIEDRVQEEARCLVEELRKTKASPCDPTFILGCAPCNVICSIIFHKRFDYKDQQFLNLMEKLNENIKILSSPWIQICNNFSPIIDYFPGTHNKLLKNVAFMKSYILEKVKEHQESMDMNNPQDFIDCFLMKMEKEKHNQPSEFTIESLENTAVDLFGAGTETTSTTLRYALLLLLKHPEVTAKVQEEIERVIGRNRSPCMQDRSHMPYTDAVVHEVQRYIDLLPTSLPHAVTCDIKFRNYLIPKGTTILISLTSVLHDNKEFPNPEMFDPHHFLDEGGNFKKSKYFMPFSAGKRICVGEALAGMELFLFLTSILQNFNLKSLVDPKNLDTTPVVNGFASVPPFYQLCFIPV
value_type: IC50

Req: Please give the measured IC50 for this compound: Cc1cc(C)c(NC(=O)C2CC3CCC2C3)c(C)c1 (stereo not shown) [compound 1]
Resp: > 30 µM

====

test_protocol: Snapshot in vivo PK study, plasma and brain levels after IP administration
condition_context: brain, 10 mg/kg
value_type: concentration at 1 h (nM)
# value in nM; strip the unit string

Req: Please give the measured concentration at 1 h for this compound: Cc1cc(C)c(NC(=O)C2CC3CCC2C3)c(C)c1 (stereo not shown) [compound 1]
Resp: 476

====

tgt: KCNQ1 (Homo sapiens)
test_protocol: IonWorks automated electrophysiology, KCNQ1
Type: cell-based
condition_context: pH 7.4
value_type: selectivity ratio at 3 min

Req: API: value(readout=selectivity ratio at 3 min, system=KCNQ1 (Homo sapiens)) for record Cc1cc(C)c(NC(=O)C2CC3CCC2C3)c(C)c1 (stereo not shown) [compound 1]
Resp: > 80

====

tgt: CYP2D6 (Homo sapiens)
Sequence (P10635 whole entry): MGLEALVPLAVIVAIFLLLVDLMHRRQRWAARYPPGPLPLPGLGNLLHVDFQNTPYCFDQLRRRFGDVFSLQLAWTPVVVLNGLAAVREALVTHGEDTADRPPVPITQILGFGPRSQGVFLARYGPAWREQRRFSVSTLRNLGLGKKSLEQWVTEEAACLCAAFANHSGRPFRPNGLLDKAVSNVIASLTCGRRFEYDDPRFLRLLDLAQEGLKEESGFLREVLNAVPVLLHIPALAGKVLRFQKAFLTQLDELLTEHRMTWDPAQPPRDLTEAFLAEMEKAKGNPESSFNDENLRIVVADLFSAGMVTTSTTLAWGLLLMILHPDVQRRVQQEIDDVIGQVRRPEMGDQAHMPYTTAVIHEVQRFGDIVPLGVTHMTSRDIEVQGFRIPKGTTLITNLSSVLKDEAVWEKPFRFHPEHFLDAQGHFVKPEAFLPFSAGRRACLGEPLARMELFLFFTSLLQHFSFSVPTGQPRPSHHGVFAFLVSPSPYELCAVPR
pIC50: −log10 of the molar value.
value_type: pIC50

Req: API: value(readout=pIC50, system=CYP2D6 (Homo sapiens)) for record Cc1cc(C)c(NC(=O)C2CC3CCC2C3)c(C)c1 (stereo not shown)
Resp: < 4.52

====

tgt: UniProt P51787
test_protocol: Tl+ flux assay, KCNQ1
Assay type: cell-based
value_type: EC50

Req: Please give the measured EC50 for this compound: Cc1cc(C)c(NC(=O)C2CC3CCC2C3)c(C)c1 (stereo not shown)
Resp: > 30 µM

====

tgt: hERG (Homo sapiens, UniProt Q12809)
Sequence (Q12809 whole entry): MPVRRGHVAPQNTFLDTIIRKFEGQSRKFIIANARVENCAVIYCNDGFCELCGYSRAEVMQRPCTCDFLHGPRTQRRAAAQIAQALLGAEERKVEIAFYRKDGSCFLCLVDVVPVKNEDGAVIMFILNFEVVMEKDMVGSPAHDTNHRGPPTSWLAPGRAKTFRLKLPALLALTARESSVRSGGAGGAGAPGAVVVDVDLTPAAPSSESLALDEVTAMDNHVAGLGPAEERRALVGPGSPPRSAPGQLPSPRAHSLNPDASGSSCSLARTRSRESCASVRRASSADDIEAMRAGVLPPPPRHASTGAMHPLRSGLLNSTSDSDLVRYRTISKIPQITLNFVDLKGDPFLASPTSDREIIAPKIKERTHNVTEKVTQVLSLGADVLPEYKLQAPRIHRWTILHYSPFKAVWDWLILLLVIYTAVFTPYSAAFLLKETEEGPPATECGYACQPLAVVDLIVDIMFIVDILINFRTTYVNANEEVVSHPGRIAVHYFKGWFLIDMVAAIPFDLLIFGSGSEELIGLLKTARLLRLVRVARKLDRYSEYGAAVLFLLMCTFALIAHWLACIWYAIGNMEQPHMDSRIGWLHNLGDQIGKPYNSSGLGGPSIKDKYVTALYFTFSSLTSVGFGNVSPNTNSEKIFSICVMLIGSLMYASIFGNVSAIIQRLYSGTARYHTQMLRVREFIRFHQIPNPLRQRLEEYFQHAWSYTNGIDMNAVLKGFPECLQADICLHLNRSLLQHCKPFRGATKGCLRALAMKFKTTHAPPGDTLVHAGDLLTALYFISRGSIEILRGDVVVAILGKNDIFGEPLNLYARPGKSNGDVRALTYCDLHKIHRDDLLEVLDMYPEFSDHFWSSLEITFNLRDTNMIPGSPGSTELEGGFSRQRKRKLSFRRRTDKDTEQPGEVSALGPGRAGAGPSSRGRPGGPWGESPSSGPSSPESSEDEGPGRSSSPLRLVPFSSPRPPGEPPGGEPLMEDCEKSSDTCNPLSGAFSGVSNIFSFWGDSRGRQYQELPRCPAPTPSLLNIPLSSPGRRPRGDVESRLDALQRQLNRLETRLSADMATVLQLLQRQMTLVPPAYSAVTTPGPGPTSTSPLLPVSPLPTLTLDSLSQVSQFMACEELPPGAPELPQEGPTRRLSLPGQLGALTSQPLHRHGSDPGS
test_protocol: IonWorks automated electrophysiology, hERG
value_type: EC50

Req: Please give the measured EC50 for this compound: Cc1cc(C)c(NC(=O)C2CC3CCC2C3)c(C)c1 (stereo not shown)
Resp: > 10 µM

====

tgt: KCNQ1/KCNE1 (Homo sapiens, UniProt P51787)
test_protocol: Tl+ flux assay, KCNQ1/E1
Assay type: cell-based
value_type: EC50

Req: Please give the measured EC50 for this compound: Cc1cc(C)c(NC(=O)C2CC3CCC2C3)c(C)c1 (stereo not shown)
Resp: > 30 µM

====

tgt: KCNQ1/KCNE1 (Homo sapiens, UniProt P51787)
test_protocol: Tl+ flux assay, KCNQ1/E1
Assay type: cell-based
value_type: selectivity ratio at 20 min

Req: Please give the measured selectivity ratio at 20 min for this molecule: Cc1cc(C)c(NC(=O)C2CC3CCC2C3)c(C)c1 (stereo not shown) [compound 1]
Resp: > 80

====

tgt: CYP3A4 (Homo sapiens)
Sequence (P08684 whole entry): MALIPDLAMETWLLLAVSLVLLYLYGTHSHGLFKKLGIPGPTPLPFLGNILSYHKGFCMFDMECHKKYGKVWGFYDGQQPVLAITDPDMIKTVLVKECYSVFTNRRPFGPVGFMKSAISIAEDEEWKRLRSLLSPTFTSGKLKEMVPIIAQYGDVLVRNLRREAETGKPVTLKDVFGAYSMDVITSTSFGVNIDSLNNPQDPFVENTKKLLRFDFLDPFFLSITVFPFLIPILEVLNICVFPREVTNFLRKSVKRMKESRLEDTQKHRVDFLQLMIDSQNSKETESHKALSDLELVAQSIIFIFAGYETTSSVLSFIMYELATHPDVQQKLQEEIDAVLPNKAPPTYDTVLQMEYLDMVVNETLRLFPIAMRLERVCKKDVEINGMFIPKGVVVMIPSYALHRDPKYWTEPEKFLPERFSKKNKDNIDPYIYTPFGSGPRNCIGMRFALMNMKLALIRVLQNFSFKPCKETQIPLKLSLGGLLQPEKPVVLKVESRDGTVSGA
value_type: IC50

Req: API: value(readout=IC50, system=CYP3A4 (Homo sapiens)) for record Cc1cc(C)c(NC(=O)C2CC3CCC2C3)c(C)c1 (stereo not shown)
Resp: > 30 µM

====

tgt: KCNQ2/KCNQ3 (Homo sapiens, UniProt O43525+O43526)
test_protocol: IonWorks automated electrophysiology, KCNQ2/KCNQ3
value_type: EC50 (nM)
# value in nM; strip the unit string

Req: Please give the measured EC50 for this molecule: Cc1cc(C)c(NC(=O)C2CC3CCC2C3)c(C)c1 (stereo not shown)
Resp: 370

====

tgt: KCNQ1 (Homo sapiens, UniProt P51787)
test_protocol: IonWorks automated electrophysiology, KCNQ1
Type: cell-based
value_type: EC50

Req: API: value(readout=EC50, system=KCNQ1 (Homo sapiens, UniProt P51787)) for record Cc1cc(C)c(NC(=O)C2CC3CCC2C3)c(C)c1 (stereo not shown) [compound 1]
Resp: > 30 µM

====

tgt: KCNQ1/KCNE1 (Homo sapiens)
test_protocol: IonWorks automated electrophysiology, KCNQ1/KCNE1
Assay type: cell-based
condition_context: pH 7.4
value_type: selectivity ratio at 3 min

Req: Please give the measured selectivity ratio at 3 min for this compound: Cc1cc(C)c(NC(=O)C2CC3CCC2C3)c(C)c1 (stereo not shown)
Resp: > 80

====

tgt: hERG (Homo sapiens)
test_protocol: IonWorks automated electrophysiology, hERG
Format: cell-based
condition_context: human
value_type: selectivity ratio

Req: API: value(readout=selectivity ratio, system=hERG (Homo sapiens)) for record Cc1cc(C)c(NC(=O)C2CC3CCC2C3)c(C)c1 (stereo not shown) [compound 1]
Resp: > 28

====

tgt: KCNQ5 (Homo sapiens, UniProt Q9NR82)
test_protocol: Tl+ flux assay, KCNQ5
pEC50: −log10 of the molar value.
value_type: pEC50

Req: Please give the measured pEC50 for this molecule: Cc1cc(C)c(NC(=O)C2CC3CCC2C3)c(C)c1 (stereo not shown)
Resp: < 4.52

====

tgt: KCNQ1/KCNE1 (Homo sapiens)
test_protocol: IonWorks automated electrophysiology, KCNQ1/KCNE1
Assay type: cell-based
value_type: EC50

Req: Please give the measured EC50 for this molecule: Cc1cc(C)c(NC(=O)C2CC3CCC2C3)c(C)c1 (stereo not shown)
Resp: > 30 µM
